Listed next: entries and their corresponding inhibition at 1 µM.
target: LYN B (Homo sapiens, UniProt P07948); assay: Tyrosine kinase inhibition assay; type: biochemical; details: LYN B; single concentration 1.0 μM; read-out: percent inhibition
Sequence (P07948 1-491 isoform P07948-2): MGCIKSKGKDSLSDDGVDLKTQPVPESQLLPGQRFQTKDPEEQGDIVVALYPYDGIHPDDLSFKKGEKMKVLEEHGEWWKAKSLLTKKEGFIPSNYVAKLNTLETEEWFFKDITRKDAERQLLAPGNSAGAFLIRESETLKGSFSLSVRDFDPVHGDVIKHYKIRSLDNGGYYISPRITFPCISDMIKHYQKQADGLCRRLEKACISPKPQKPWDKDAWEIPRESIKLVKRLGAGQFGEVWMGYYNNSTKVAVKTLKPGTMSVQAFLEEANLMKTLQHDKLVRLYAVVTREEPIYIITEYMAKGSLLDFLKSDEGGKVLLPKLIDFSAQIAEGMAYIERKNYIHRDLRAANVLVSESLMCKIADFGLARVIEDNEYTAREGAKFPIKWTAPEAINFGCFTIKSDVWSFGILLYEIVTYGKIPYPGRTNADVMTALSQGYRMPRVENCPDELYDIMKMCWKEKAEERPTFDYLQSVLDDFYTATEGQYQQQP

MOLECULE: COc1cc2nccc(Oc3ccc(NC(=O)C4(C(=O)Nc5ccc(F)cc5)CC4)cc3F)c2cc1Oc1ccc(N)cc1F
inhibition at 1 µM [%]: 96
//
MOLECULE: COc1cc2nccc(Oc3ccc(NC(=O)C4(NC(=O)c5ccc(F)cc5)CC4)cc3F)c2cc1OC
inhibition at 1 µM [%]: 81
//
MOLECULE: COc1cc2nccc(Oc3ccc(NC(=O)C4(NC(=O)c5ccc(F)cc5)CC4)cc3F)c2cc1Oc1c(F)cc(N)cc1F
inhibition at 1 µM [%]: 87
//
MOLECULE: COc1cc2nccc(Oc3ccc(NC(=O)C4(NC(=O)c5ccc(F)cc5)CC4)cc3F)c2cc1Oc1ccc(N)cc1F
inhibition at 1 µM [%]: 86
//
MOLECULE: COc1cc2nccc(Oc3ccc(NC(=O)C4(C(=O)Nc5ccc(F)cc5)CC4)cc3)c2cc1OC [Cabozantinib, reference compound]
inhibition at 1 µM [%]: 91
